tgt: full-length human GLP-1R with an N-terminal FLAG tag (human, UniProt P43220 24-463)
assay_name: cell-based or functional assay
Starred links: 1 amine or outer side, 2 acyl side, 3 side chain; linkers in the order of their positions; H or OH if unused. Non-standard residues stand in square brackets, D forms with d. Groups on a side chain read outwards from the residue. No end group written: not given here. *: point of attachment. C16 diacid = O=C(O)CCCCCCCCCCCCCCC(=O)*; C15 diacid = O=C(O)CCCCCCCCCCCCCC(=O)*; γGlu = O=C(O)[C@H](CCC(=O)[*:2])N[*:1]; NMeY = CN[C@@H](Cc1ccc(O)cc1)C(=O)O; Aib = CC(C)(N)C(=O)O
The following binders are shown together with reported Human GLP1R cAMP HEK293T EC50 values.
Answer with a number only, understood to be in nM.

Completed entries (count: 10):
{"columns": ["binder", "Human GLP1R cAMP HEK293T EC50, nM"],
 "data": [
  ["YXEGTFISDYSIALDRXHQXDFVNWLLAQRPSSGAPPPS (not fully specified; Me-Tyr1; Aib 2,20; Km17 = Lys(gE-C15DA); C-term NH2) [Compound 67]", 525],
  ["YXEGTFISDYSIALDRXHQXDFVNWLLAQSPSSGAPPPS (not fully specified; Me-Tyr1; Aib 2,20; Km17 = Lys(linker printed 'GS'-C15DA); C-term NH2) [Compound 68]", 200],
  ["Me-Y[Aib]EGTFISDYSIAK([γGlu-γGlu-γGlu-C15 diacid])DR[Aib]AQ[Aib]NFVNWLLAQSPSSGAPPPS-NH2 [Compound 18]", 1000],
  ["[NMeY][Aib]EGTFISDYSIAKDR[Aib]AQQNFVNWLLAQK (not fully specified (residue 14)) [Compound 3]", 692],
  ["[NMeY]SEGTFISDYSIAK([2OEG-γGlu-C16 diacid])DRIHQ[Aib]NFVNWLLAQK (not fully specified (N-terminus)) [Compound 7]", 257],
  ["[NMeY][Aib]EGTFISDYSI[Aib]K([GGEEE-C15 diacid])DR[Aib]AQ[Aib]NFVNWLLAQRPSSGAPPPS-NH2 [Compound 95]", 537],
  ["Y[Aib]EGTFISDYSI[Aib]KDR[Aib]AQ[Aib]NFVNWLLAQRPSSGAPPPS-OH (not fully specified (residues 1, 14)) [Compound 56]", 263],
  ["[NMeY][Aib]EGTFISDYSIALDRKHQ[Aib]NFVNWLLAQSPSSGAPPPS-NH2 (not fully specified (residue 17)) [Compound 65]", 129],
  ["Me-Y[Aib]EGTFISDYSIAKDR[Aib]AQ[Aib]DFVNWLLAQSPSSGAPPPS-NH2 (not fully specified (residues 1, 14)) [Compound 151]", 145],
  ["Y[Aib]EGTFISDYSIAKDR[Aib]AQ[Aib]NFVNWLLAQSPSSGAPPPS-OH (not fully specified (residues 1, 14); also: Me-Tyr methyl position not given here) [Compound 51]", 1000]
]}

The measured Human GLP1R cAMP HEK293T EC50 associated with [NMeY][Aib]EGTFISDYSIAK([G5-γGlu-γGlu-C15 diacid])DR[Aib]AQ[Aib]NFVNWLLAQSPSSGAPPPS-NH2 [Compound 81] reads 1000

# credit: patent US20220227830A1
